assay: Area under the curve determinations of plasma levels in rats (rrAUC), oral 10 mg/kg; format: in vivo; settings: rat, plasma 0.5-6 h post-dosing, read-out: RR AUC (rapid rat AUC, rrAUC)
outcome.measure: log10 of AUC (log10 of the value in µM·h)
Hi team, quick reminder: these entries are log10 of AUC (µM·h).

COc1ccc2c(c1)C(=O)N(C[C@@]1(c3cc4c(o3)CN(C)CC4)NC(=O)NC1=O)C2 : -0.21

The following compounds each have a reported value; give each one's log10 of AUC.
1. COc1ccc2c(c1)C(=O)N(C[C@@]1(c3cc4nc(-c5cn[nH]c5)ccc4o3)NC(=O)NC1=O)C2
2. COc1ccc2c(c1)C(=O)N(C[C@@]1(c3cc4nc(N5C(=O)CC[C@H]5CO)ccc4o3)NC(=O)NC1=O)C2
3. COc1ccc2c(c1)C(=O)N(C[C@@]1(c3cc4cc(-c5ccncc5)ncc4o3)NC(=O)NC1=O)C2
4. COc1ccc2c(c1)C(=O)N(C[C@@]1(c3cc4c(C5=NCCN5)nccc4o3)NC(=O)NC1=O)C2
5. CNC(=O)Nc1ccc2oc([C@]3(CN4Cc5ccc(OC)cc5C4=O)NC(=O)NC3=O)cc2c1
6. COc1ccc2c(c1)C(=O)N(C[C@@]1(c3cc4cc(NC(=O)N(C)C)ccc4o3)NC(=O)NC1=O)C2

**Result**
[-0.98, -1.48, 0.69, -1.48, -1.24, -0.89]

====

target: purified catalytic domain of recombinant human TACE (rhTACEc) (Homo sapiens, UniProt P78536, N452Q/S266A); construct: 6xHis (C); made in house; host or cells: baculovirus/Hi5 insect cells; experiment: TACE kinetic assay: cleavage of internally quenched peptide substrate TNF-FRET 2 (Ki); format: biochemical; settings: TNF-FRET 2 substrate, read-out: Ki
Sequence (P78536 215-477 S266A/N452Q): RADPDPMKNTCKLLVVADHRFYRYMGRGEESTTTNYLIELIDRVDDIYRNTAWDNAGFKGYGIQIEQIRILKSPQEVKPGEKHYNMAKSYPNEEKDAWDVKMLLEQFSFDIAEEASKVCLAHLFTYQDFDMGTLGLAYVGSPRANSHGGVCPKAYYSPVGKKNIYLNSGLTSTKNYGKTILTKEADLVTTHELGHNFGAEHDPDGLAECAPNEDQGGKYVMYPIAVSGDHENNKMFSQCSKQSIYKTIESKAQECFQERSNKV
outcome.measure: pKi
One number for each entry, as −log10 of the molar value.

# annotated cases, reported pKi shown
COc1ccc2c(c1F)C(=O)N(C[C@@]1(c3cc4nc(N5CCC5=O)ccc4o3)NC(=O)NC1=O)C2 [Compound 1522] : 9.52
CCC1(c2cc(F)c3oc([C@]4(CN5Cc6ccc(OC)c(F)c6C5=O)NC(=O)NC4=O)cc3c2)NC(=O)NC1=O (stereo partly shown) [Compound 1305] : 9.11
COc1ccc2c(c1)C(=O)N(C[C@@]1(c3cc4nc(-c5cnc(OC)nc5OC)ccc4o3)NC(=O)NC1=O)C2 [Compound 1509] : 9.30
COc1ccc2c(c1F)C(=O)N(C[C@@]1(c3cc4cc([C@]5(C)C(=O)NC(=O)N5C)c(F)cc4o3)NC(=O)NC1=O)C2 [Compound 1317] : 9.33
COc1ccc2c(c1)C(=O)N(C[C@@]1(c3cc4nc(N5C[C@@H](O)CC5=O)ccc4o3)NC(=O)NC1=O)C2 [Compound 2154] : 9.19

The following molecules each have a reported value; give each one's pKi.
1. CNC(=O)Nc1ccc2oc([C@]3(CN4Cc5ccc(OC)cc5C4=O)NC(=O)NC3=O)cc2c1 [Compound 2227]
2. COc1ccc2c(c1)C(=O)N(C[C@@]1(c3ccc(C(=O)N4CCOCC4)cc3)NC(=O)NC1=O)C2 [Compound 2405]

**Result**
1: 9.32; 2: 8.54

====

assay: Area under the curve determinations of plasma levels in rats (rrAUC), oral 10 mg/kg; format: in vivo; settings: rat, plasma 0.5-6 h, read-out: RR AUC (rapid rat AUC, rrAUC)
For each of the compounds below, state its AUC.
One number for each entry, in µM·h.

# annotated cases, reported AUC shown
COc1ccc2c(c1F)C(=O)N(C[C@@]1(c3cc4nc(Cl)c(F)cc4o3)NC(=O)NC1=O)C2 : 5.61
COc1ccc2c(c1F)C(=O)N(C[C@@]1(c3cc4nc(N5CCC5=O)ccc4o3)NC(=O)NC1=O)C2 : 4.63
COc1ccc2c(c1F)C(=O)N(C[C@@]1(c3cc4nc(-c5ccc(N)nc5)c(F)cc4o3)NC(=O)NC1=O)C2 : 0.863

The following compounds each have a reported value; give each one's AUC.
1. COc1ccc2c(c1F)C(=O)N(C[C@@]1(c3cc4nc(N5CCN(C(C)C)CC5)ccc4o3)NC(=O)NC1=O)C2
2. CCN1CCN(c2ccc3oc([C@]4(CN5Cc6ccc(OC)c(F)c6C5=O)NC(=O)NC4=O)cc3n2)CC1=O
3. COc1ccc2c(c1F)C(=O)N(C[C@@]1(c3cc4nc(C)c(F)cc4o3)NC(=O)NC1=O)C2

**Result**
1. 0.273
2. 0.65
3. 38.3

**Query** May I ask what AUC has been recorded for COc1ccc2c(c1F)C(=O)N(C[C@@]1(c3cc4nc(N5C(=O)CCC5C)ccc4o3)NC(=O)NC1=O)C2 (stereo partly shown) ?
**Result** 5.19

====

For each of the compounds below, state its Ki.
target: purified catalytic domain of recombinant human TACE (rhTACEc) (Homo sapiens, UniProt P78536, N452Q/S266A); construct: 6xHis (C); made in house; host or cells: baculovirus/Hi5 insect cells; assay: TACE kinetic assay: cleavage of internally quenched peptide substrate TNF-FRET 2 (Ki); format: biochemical; details: TNF-FRET 2 substrate, read-out: Ki
Give bare numbers, in nM.

COc1ccc2c(c1)C(=O)N(C[C@@]1(c3cc4c(C(F)(F)F)nccc4o3)NC(=O)NC1=O)C2 : 0.441
COc1ccc2c(c1)C(=O)N(C[C@@]1(c3ccc(-c4ccc(C(=NO)N5CCN(C)CC5)cc4)cc3)NC(=O)NC1=O)C2 : 0.76

The following compounds each have a reported value; give each one's Ki.
1. COc1ccc2c(c1)C(=O)N(C[C@@]1(c3cc4cc(/C(=N\O)N5CC[C@H](N(C)C)C5)ccc4o3)NC(=O)NC1=O)C2
2. COc1ccc2c(c1)C(=O)N(C[C@@]1(c3cc4nc(N5CCN(c6ccncc6)CC5)ccc4o3)NC(=O)NC1=O)C2
3. COc1ccc2c(c1)C(=O)N(C[C@@]1(c3cc4cc(-c5ccccc5O)ncc4o3)NC(=O)NC1=O)C2
4. COc1ccc2c(c1)C(=O)N(C[C@@]1(c3cc4ncc(C(=O)NC5CC5)cc4o3)NC(=O)NC1=O)C2 [Compound 1931]
5. CNC(=O)c1cnc(C)c2cc([C@]3(CN4Cc5ccc(OC)cc5C4=O)NC(=O)NC3=O)oc12
6. COc1ccc2c(c1)C(=O)N(C[C@@]1(c3oc4cccnc4c3-c3ncccc3O)NC(=O)NC1=O)C2
7. COc1ccc2c(c1)C(=O)N(C[C@@]1(c3cc4c5c(ccc4o3)C(=O)NC5)NC(=O)NC1=O)C2
8. COc1ccc2c(c1)C(=O)N(C[C@@]1(c3cc4nc(-c5cc(O)cc(-c6ccncc6)c5)ccc4o3)NC(=O)NC1=O)C2

**Result**
1. 0.8
2. 0.976
3. 1.19
4. 0.56
5. 0.54
6. 0.75
7. 0.45
8. 1.39

The following compounds each have a reported value; give each one's Ki.
1. COc1ccc2c(c1F)C(=O)N(C[C@@]1(c3cc4nc(-c5c(C)nn(C)c5C)ccc4o3)NC(=O)NC1=O)C2
2. COc1ccc2c(c1)C(=O)N(C[C@@]1(c3cc4cc(NC(N)=O)ccc4o3)NC(=O)NC1=O)C2
3. COc1ccc2c(c1)C(=O)N(C[C@@]1(c3cc4cc(C(=NO)N5CCN(C6CC6)CC5)ccc4o3)NC(=O)NC1=O)C2

**Result**
0.39
0.099
0.58

**Query** May I ask what Ki has been recorded for COc1ccc2c(c1F)C(=O)N(C[C@@]1(c3cc4nc(N5CCNC5=O)c(F)cc4o3)NC(=O)NC1=O)C2 ?
**Result** 0.66

====

test: Area under the curve determinations of plasma levels in rats (rrAUC), oral 10 mg/kg; type: in vivo; details: rat, plasma 0.5-6 h post-dosing, read-out: RR AUC (rapid rat AUC, rrAUC)
outcome.measure: AUC (µM·h)
Numbers only, in µM·h.

COc1ccc2c(c1)C(=O)N(C[C@@]1(c3cc4cc(-c5cc[nH]n5)ccc4o3)NC(=O)NC1=O)C2 [Compound 2219] : 1.02
COc1ccc2c(c1)C(=O)N(C[C@@]1(c3cc4nc(N5C[C@@H](O)CC5=O)ccc4o3)NC(=O)NC1=O)C2 [Compound 2154] : 0.393

The following compounds each have a reported value; give each one's AUC.
1. COc1ccc2c(c1)C(=O)N(C[C@@]1(c3cc4cc(C5(C)NC(=O)NC5=O)c(C)cc4o3)NC(=O)NC1=O)C2 (some centres unmarked) [Compound 2207]
2. COc1ccc2c(c1)C(=O)N(C[C@@]1(c3cc4cc(-c5ccnc(N)n5)ccc4o3)NC(=O)NC1=O)C2 [Compound 2245]
3. COc1ccc2c(c1F)C(=O)N(C[C@@]1(c3cc4nc(N5CCN(C)CC5)ccc4o3)NC(=O)NC1=O)C2 [Compound 2125]
4. CCNC(=O)Nc1ccc2oc([C@]3(CN4Cc5ccc(OC)cc5C4=O)NC(=O)NC3=O)cc2c1 [Compound 2229]
5. COc1ccc2c(c1)C(=O)N(C[C@@]1(c3cc4c(C)nc(C)cc4o3)NC(=O)NC1=O)C2 [Compound 2257]
6. COc1ccc2c(c1)C(=O)N(C[C@@]1(c3cc4nc(-c5cnn(C)c5)ccc4o3)NC(=O)NC1=O)C2 [Compound 2104]
7. COc1ccc2c(c1F)C(=O)N(C[C@@]1(c3cc4nc(N5CCCNC5=O)ccc4o3)NC(=O)NC1=O)C2 [Compound 2146]

**Result**
0.063
6.03
1.52
0.158
4.23
0.369
0.522

The following compounds each have a reported value; give each one's AUC.
1. COc1ccc2c(c1)C(=O)N(C[C@@]1(c3cc4nc(NC5CC5)ccc4o3)NC(=O)NC1=O)C2 [Compound 2148]
2. COc1ccc2c(c1)C(=O)N(C[C@@]1(c3cc4nc(-c5ccnn5C)ccc4o3)NC(=O)NC1=O)C2 [Compound 2116]
3. COc1ccc2c(c1)C(=O)N(C[C@@]1(c3cc4c(Cl)nccc4o3)NC(=O)NC1=O)C2 [Compound 2278]
4. COc1ccc2c(c1)C(=O)N(C[C@@]1(c3cc4cc(-c5cn[nH]c5)c(F)cc4o3)NC(=O)NC1=O)C2 [Compound 1186]
5. COc1ccc2c(c1)C(=O)N(C[C@@]1(c3cc4c(-c5ccncc5)nccc4o3)NC(=O)NC1=O)C2 [Compound 2236]

**Result**
9.34
5.19
12.1
0.285
0.02

The following compounds each have a reported value; give each one's AUC.
1. COc1ccc2c(c1F)C(=O)N(C[C@@]1(c3cc4c(C)nccc4o3)NC(=O)NC1=O)C2 [Compound 2204]
2. COc1ccc2c(c1)C(=O)N(C[C@@]1(c3cc4nc(N5CCC5=O)ccc4o3)NC(=O)NC1=O)C2 [Compound 2173]
3. COc1ccc2c(c1)C(=O)N(C[C@@]1(c3cc4nc(N5CC[C@H](O)C5=O)ccc4o3)NC(=O)NC1=O)C2 [Compound 2159]

**Result**
[0.983, 2.54, 0.527]

The following compounds each have a reported value; give each one's AUC.
1. COc1ccc2c(c1)C(=O)N(C[C@@]1(c3cc4nc(-c5ccncc5)ccc4o3)NC(=O)NC1=O)C2 [Compound 2110]
2. COc1ccc2c(c1)C(=O)N(C[C@@]1(c3cc4nc(N5CCCC5=O)ccc4o3)NC(=O)NC1=O)C2 [Compound 2171]
3. COc1ccc2c(c1)C(=O)N(C[C@@]1(c3cc4cnc(-c5ccncc5)cc4o3)NC(=O)NC1=O)C2 [Compound 2231]

**Result**
1: 10.5; 2: 9.1; 3: 2.75
